Species: Rattus norvegicus
Experiment: DrugMatrix - Regimen: Daily Repeat
Assay type: toxicity, organism-based, Sprague-Dawley
Parameters: regimen Daily Repeat, gender Male, age 6-8 weeks
Settings: in vivo, sc, 2 mg/kg, 120 h, tissue Blood, route mini-PUMP - SUBCUTANEOUS, dose level High, time 5 day, vehicle 100 % SALINE
READOUT_LABEL: ABSOLUTE MONOCYTE (cells/µL)
Give bare numbers, in cells/µL.

// lookup ABSOLUTE MONOCYTE for CC(C)NCC(O)c1ccc(O)c(O)c1 (stereo unspecified) [ISOPROTERENOL] 350

----------
For each record, write down the corresponding MONOCYTE.
Species on record: Rattus norvegicus
Test: DrugMatrix - Regimen: Daily Repeat
Type: toxicity, organism-based, Sprague-Dawley
Design: regimen Daily Repeat, gender Male, age 6-8 weeks
Conditions: in vivo, po, 10 mg/kg, 120 h, tissue Blood, route oral GAVAGE, dose level Low, time 5 day, vehicle .5 % CMC
One number for each entry, in %.

// lookup MONOCYTE for O=C1C(CC[S+]([O-])c2ccccc2)C(=O)N(c2ccccc2)N1c1ccccc1 (centres undefined) 0

Each compound below has a reported value. Please supply its MONOCYTE.
1. CNCCC(Oc1ccc(C(F)(F)F)cc1)c1ccccc1 (centres undefined)
2. O=C1CN=C(c2ccccc2Cl)c2cc([N+](=O)[O-])ccc2N1
3. Fc1ccc(C(c2ccc(F)cc2)N2CCN(C/C=C/c3ccccc3)CC2)cc1

1. 0.67
2. 0.67
3. 2

----------
Species: Rattus norvegicus
Test: DrugMatrix - Regimen: Daily Repeat
Format: toxicity, organism-based, Sprague-Dawley
Design: regimen Daily Repeat, gender Male, age 6-8 weeks
Details: in vivo, sc, 0 mg/kg, 72 h, tissue Plasma, route subcutaneous, dose level Control, time 3 day, […]
READOUT_LABEL: LIPASE (u/L)
One number for each entry, in u/L.

// lookup LIPASE for Oc1c(Cl)cc(Cl)c(Cl)c1Cc1c(O)c(Cl)cc(Cl)c1Cl [HEXACHLOROPHENE] 9.33

Each molecule below has a reported value. Please supply its LIPASE.
1. CC(C)(C)CC(C)(C)c1ccc(OCCOCC[N+](C)(C)Cc2ccccc2)cc1.[Cl-] [BENZETHONIUM CHLORIDE]
2. CCC(=O)O[C@]1(C(=O)CCl)[C@@H](C)C[C@H]2[C@@H]3CCC4=CC(=O)C=C[C@]4(C)[C@@]3(F)[C@@H](O)C[C@@]21C [CLOBETASOL PROPIONATE]
3. CCN(CC)CCOCCC1=CCC2CC1C2(C)C (stereo not given) [MYRTECAINE]

1: 9.33; 2: 8.5; 3: 9.83

// lookup LIPASE for O=C(Nc1ccc(Br)cc1)c1cc(Br)cc(Br)c1O [TRIBROMSALAN] 8.5

----------
Species on record: Rattus norvegicus
Test: DrugMatrix - Regimen: Daily Repeat
Assay type: toxicity, organism-based, Sprague-Dawley
Set-up: regimen Daily Repeat, gender Male, age 6-8 weeks
Conditions: in vivo, po, 2000 mg/kg, 72 h, tissue Plasma, route oral GAVAGE, dose level High, time 3 day, vehicle .5 % CMC
For each record, write down the corresponding CREATININE.
Report field: quantity (unit follows the number).

// lookup CREATININE for CN(C/C=C/C#CC(C)(C)C)Cc1cccc2ccccc12 0.5 mg/dL

// lookup CREATININE for CC1(C)S[C@@H]2[C@H](NC(=O)[C@H](N)c3ccccc3)C(=O)N2[C@H]1C(=O)O 0.18 mg/dL

Each molecule below has a reported value. Please supply its CREATININE.
1. CN/C(=N/CCSCc1nc[nH]c1C)NC#N
2. O=C1Nc2ccc(Cl)cc2C(c2ccccc2Cl)=NC1O (stereo unspecified)
3. COc1cc2nc(N3CCN(C(=O)c4ccco4)CC3)nc(N)c2cc1OC
4. NC1CCN(c2nc3c(cc2F)c(=O)c(C(=O)O)cn3-c2ccc(F)cc2F)C1 (stereo unspecified)

["0.24 mg/dL", "0.22 mg/dL", "0.19 mg/dL", "0.5 mg/dL"]
